Target: EGFR on the surface of human tumour cells (A431, H292) (human, UniProt P00533 25-1210)
Test: cell-based or functional assay
experimental endpoint: % inhibition of EGFR phosphorylation at 100 nM binder, cell-based assay
Could you kindly put the unit after your number?

Known % inhibition of EGFR phosphorylation at 100 nM binder, cell-based assay results, listed for orientation:
# binder, obs value
rows = [
    ("E105 (designed binder) 10Fn3 domain: MGVSDVPRDLEVVAATPTSLLISWDAPTSRYQYYRITYGETGGNSPVQEFTVPGGLSTATISGLKPGVDYTITVYAVTDYKPHADGPHTYHESPISINYRTEIDKPSQ", "87%"),
    ("E102 (designed binder) 10Fn3 domain: MGVSDVPRDLEVVAATPTSLLISWTPANKSYQYYRITYGETGGNSPVQEFTVPHDLVTATISGLKPGVDYTITVYAVTDHKPHADGPHTYHESPISINYRTEIDKPSQ", "80%"),
    ("E101 (designed binder) 10Fn3 domain: MGVSDVPRDLEVVAATPTSLLISWDAPAVTYQYYRITYGETGGNSPVQEFTVPHDLVTATISGLKPGVDYTITVYAVTDYKPHADGPHTYHESPISINYRTEIDKPSQ", "90.9%"),
]

Okay, next one:
Assign % inhibition of EGFR phosphorylation at 100 nM binder, cell-based assay to the following record: E110 (designed binder) 10Fn3 domain: MGVSDVPRDLEVVAATPTSLLISWDAGAVTYQYYRITYGETGGNSPVQEFTVPGGVRTATISGLKPGVDYTITVYAVTDYKPHADGPHTYHESPISINYRTEIDKPSQ
81.3%
